tested on: Plasmodium berghei; assay: Screen against P. berghei liver stage (PbLuc), transformed with Luciferase, at 2uM; format: functional, HepG2; settings: tested at 2 uM
The campaign covered roughly 68,000 compounds. About 2,700 (4%) showed an effect of 50% or more. What follows is part of a selection rich in strong results, with near analogues and random picks from the rest.
Threshold 20%. INHIBITION below it: rule met. INHIBITION at it or above: rule not met.

Hello, I'm reviewing records and need to know if INHIBITION of "O=C(c1cccn1Cc1cccs1)N1CCC(C(=O)N2CCCC2)CC1" is below 20%. Could you check?
rule met

Hello, I'm reviewing records and need to know if INHIBITION of "O=C(c1cccn1Cc1cccs1)N1CCN(C(=O)C2CC2)CC1" is below 20%. Could you check?
rule met

Hello, I'm reviewing records and need to know if INHIBITION of "CCS(=O)(=O)N1CCc2c(cccc2NCc2nc(C)c(C)o2)C1" is below 20%. Could you check?
rule met

Hello, I'm reviewing records and need to know if INHIBITION of COc1ccc(CN2CCC(O)(CN3CCCCC3)C2)c(C)c1 (stereo unspecified) is below 20%. Could you check?
rule met

Hello, I'm reviewing records and need to know if INHIBITION of "COC(=O)COc1nc(CC(C)C)c2c(c1C#N)CCCC2" is below 20%. Could you check?
rule not met

Hello, I'm reviewing records and need to know if INHIBITION of "O=C(c1cccn1Cc1cccs1)N1CCSCC1" is below 20%. Could you check?
rule not met

---

test system: Plasmodium berghei; test: Screen against P. berghei liver stage (PbLuc), transformed with Luciferase, at 2uM; assay type: functional, HepG2; settings: tested at 2 uM
The whole screen tested about 68,000 compounds, of which about 2,700 (4%) showed an effect of 50% or more. Shown is part of a subset that was picked to be rich in strong results.
parameter_measured: INHIBITION (%)
Field format: number, assumed %, no unit text.

INHIBITION value, target or system Plasmodium berghei, for "Cn1c(CN2CCCCCC2)cc(=O)c(O)c1CN1CCCC1" : 29.19

INHIBITION value, target or system Plasmodium berghei, for "Clc1ccccc1CCN1CCN(c2ccc3nncn3n2)CC1" : 50.77

INHIBITION value, target or system Plasmodium berghei, for "Cc1cc2c(cc1Cl)C=CC1(CCN(CC(=O)N3CCCC3)CC1)O2" : -28

INHIBITION value, target or system Plasmodium berghei, for "O=C(c1ccnnc1)N1C[C@@H](OCC2CCOCC2)[C@H]2OCCC[C@H]21" : 3.35

INHIBITION value, target or system Plasmodium berghei, for "CCS(=O)(=O)N(C)C1CCN(C(=O)c2cccc(Cl)c2)CC1" : -41.98

INHIBITION value, target or system Plasmodium berghei, for CC(C)C(=O)NC1COC2(CCN(C(=O)c3ccc[nH]3)CC2)C1 (centres undefined) : 25.46

INHIBITION value, target or system Plasmodium berghei, for "CCc1ccc(NS(=O)(=O)C=c2[nH]c(=O)n3cccc3c2=O)cc1" : -1.14

INHIBITION value, target or system Plasmodium berghei, for "c1ccc(CCN2CCN(c3ccc4nncn4n3)CC2)nc1" : -59.79

INHIBITION value, target or system Plasmodium berghei, for "c1ccc(NC[C@@H]2CCC[C@@H]3CN(Cc4nccs4)C[C@@H]32)nc1" : 38.11
